Reported herbicidal effect against ALOMY (Alopecurus myosuroides) values are given for each entry in this list.
system: Alopecurus myosuroides; experiment: Herbicidal post-emergence action; assay type: in vivo; conditions: post-emergence method, 80 g/ha
Just the number please, in %, no unit attached.

>>> df
                                   compound  quantitative_readout
0  CCOC(=O)OC1=C(c2c(CC)cc(C)cc2CC)C(=O)C2CC3(CC12)OCC(OC)CO3 (centres unmarked)                   100
1  CCc1cc(C)cc(CC)c1C1=C(O)C2CC3(CC2C1=O)OC(C)CC(C)O3 (mixture of isomers) [I-a-12]                   100
2  CCc1cc(C)cc(CC)c1C1=C(OC(=O)OC)[C@H]2C[C@]3(COC(C)(C)O3)C[C@H]2C1=O (relative stereo)                    90
3  CCOC(=O)OC1=C(c2c(CC)cc(C)cc2CC)C(=O)[C@@H]2CC3(C[C@H]12)OCCO3 (relative stereo)                    90
4  C=C1CC2C(=O)C(c3c(C)cc(C)cc3OC)=C(O)C2C1 (centres unmarked)                     0
5  CCc1cc(C)cc(CC)c1C1=C(O)C2CC(=NOC(C)(C)C)CC2C1=O (centres unmarked)                    90
6  C=C1C[C@@H]2C(O)=C(c3c(C)cc(C)cc3C)C(=O)[C@@H]2C1 (relative stereo)                    50

Now examine the next entry.
*Q* // map C#CCON=C1CC2C(=O)C(c3c(C)cc(C)cc3C)=C(OC(=O)OCC)C2C1 (racemic) to recorded herbicidal effect against ALOMY (Alopecurus myosuroides) (system: Alopecurus myosuroides)
*A* 20

----------
System: Setaria viridis
Assay: Herbicidal pre-emergence action
Type: in vivo
Conditions: pre-emergence method, 80 g/ha, greenhouse, visual assessment vs untreated controls
Text: Seeds of monocotylidonous and dicotylidonous weed and crop plants are placed in sandy loam in wood fibre pots and covered with soil. The test compounds, formulated in the form of wettable powders (WP), are then, as an aqueous suspension with a water application rate of 600 l/ha (converted), with 0.2% of wetting agent added, applied to the surface of the covering soil in different amounts. […]
Reported herbicidal effect SETVI values are given for each entry in this list.
Just the number please, in %, no unit attached.

*Q* Look at this compound and give its reported herbicidal effect SETVI. CCc1cc(C)cc(CC)c1C1=C(OC(=O)OC)C2CC3(CC2C1=O)OC(C)CC(C)O3 (mixture of isomers)
*A* 70

----------
tested on: Echinocloa crus-galli; test: Herbicidal post-emergence action; type: in vivo; settings: Echinochloa crus-galli, 504 h, post-emergence method, read-out: herbicidal effect against ECHCG (Echinochloa crus-galli)
Reported pest or weed control at 80 g/ha values are given for each entry in this list.
Answer format: value, then unit.

>>> df
                                   compound       target_or_system  result
0  C=C1C[C@@H]2C(O)=C(c3c(CC)cc(C)cc3CC)C(=O)[C@@H]2C1 (stereo in doubt)  Echinocloa crus-galli    100%

*Q* Look at this compound and give its reported pest or weed control at 80 g/ha. CCc1cc(C)cc(CC)c1C1=C(OC(C)=O)[C@H]2C[C@@]3(COC(C)(C)O3)C[C@H]2C1=O
*A* 100%

*Q* Look at this compound and give its reported pest or weed control at 80 g/ha. C=C1CC2C(=O)C(c3c(CC)cc(C)cc3CC)=C(OC(=O)OCC)C2C1 (centres unmarked)
*A* 100%

*Q* Look at this compound and give its reported pest or weed control at 80 g/ha. CCc1cc(C)cc(CC)c1C1C(=O)[C@H]2C/C(=N\OC)C[C@H]2C1=O (some centres unmarked)
*A* 100%

*Q* Look at this compound and give its reported pest or weed control at 80 g/ha. CCc1cc(C)cc(CC)c1C1=C(O)[C@H]2C[C@]3(COC(C)(C)O3)C[C@H]2C1=O
*A* 100%

*Q* Look at this compound and give its reported pest or weed control at 80 g/ha. CCc1cc(C)cc(CC)c1C1=C(O)[C@H]2C[C@@]3(COC(C)(C)O3)C[C@H]2C1=O
*A* 100%

*Q* Look at this compound and give its reported pest or weed control at 80 g/ha. CCc1cc(C)cc(CC)c1C1=C(O)[C@H]2CC(=O)C[C@H]2C1=O (stereo in doubt)
*A* 100%

*Q* Look at this compound and give its reported pest or weed control at 80 g/ha. CCc1cc(C)cc(CC)c1C1=C(OC(=O)OC)[C@H]2C[C@@]3(COC(C)(C)O3)C[C@H]2C1=O
*A* 60%

----------
tested on: Alopecurus myosuroides; test: Herbicidal post-emergence action; assay type: in vivo; conditions: post-emergence method, 80 g/ha
Endpoint label: herbicidal effect against ALOMY (Alopecurus myosuroides)

Before answering, review these 4 worked examples.
>>> df
                                   molecule  result
0  C#CC(C)ON=C1C[C@@H]2C(O)=C(c3c(CC)cc(C)cc3CC)C(=O)[C@@H]2C1 (relative stereo) [I-a-32]     80%
1  CCc1cc(C)cc(C)c1C1=C(OC(=O)OC)C2CC3(COC(C)(C)O3)CC2C1=O (mixture of isomers) [I-c-79]    100%
2  COC(=O)OC1=C(c2c(C)cc(C)cc2C)C(=O)C2CC3(COC(C)(C)O3)CC12 (mixture of isomers) [I-c-56]     90%
3  CCc1cc(C)cc(CC)c1C1=C(O)[C@H]2CC3(C[C@H]2C1=O)OCC(C)(C)CO3 (relative stereo) [I-a-9]     60%

*Q* Look at this molecule and give its reported herbicidal effect against ALOMY (Alopecurus myosuroides). CCc1cc(C)cc(CC)c1C1=C(OC(=O)C(C)C)C2CC3(CC2C1=O)OCC=CCO3 (centres unmarked) [I-b-12]
*A* 90%

*Q* Look at this molecule and give its reported herbicidal effect against ALOMY (Alopecurus myosuroides). CCC(=O)OC1=C(c2c(CC)cc(C)cc2CC)C(=O)C2CC3(COC(C)(C)O3)CC12 (centres unmarked) [I-b-2]
*A* 100%

*Q* Look at this molecule and give its reported herbicidal effect against ALOMY (Alopecurus myosuroides). C#CCON=C1CC2C(=O)C(c3c(C)cc(C)cc3C)=C(O)C2C1 (centres unmarked) [I-a-43]
*A* 20%

*Q* Look at this molecule and give its reported herbicidal effect against ALOMY (Alopecurus myosuroides). C#CCON=C1CC2C(=O)C(c3c(CC)cc(C)cc3CC)=C(OC(=O)OCC)C2C1 (centres unmarked) [I-c-41]
*A* 100%

----------
system: cereals; assay: Container trials with cereals in the greenhouse, use of safeners (Mefenpyr 1 day prior to herbicide application); type: in vivo; conditions: summer wheat, 10 days after application, 12.5 g of a.i./ha
Endpoint label: Summer wheat observed (%)
Just the number please, in %, no unit attached.

>>> df
                                   molecule  target_or_system             endpoint_label  quantitative_readout
0  CCc1cc(C)cc(CC)c1C1=C(O)C2CC3(CC2C1=O)OCC(C)O3 (mixture of isomers)           cereals  Summer wheat observed (%)                    30

*Q* Look at this molecule and give its reported Summer wheat observed (%). CCc1cc(C)cc(CC)c1C1=C(O)[C@H]2CC3(C[C@H]2C1=O)OCC=CCO3 (relative stereo)
*A* 50

*Q* Look at this molecule and give its reported Summer wheat observed (%). CCOC(=O)OC1=C(c2c(CC)cc(C)cc2CC)C(=O)[C@@H]2CC3(C[C@H]12)OCCO3 (relative stereo)
*A* 40

*Q* Look at this molecule and give its reported Summer wheat observed (%). CCc1cc(C)cc(CC)c1C1=C(O)[C@H]2CC3(C[C@H]2C1=O)OCCO3 (relative stereo)
*A* 20

*Q* Look at this molecule and give its reported Summer wheat observed (%). CCc1cc(C)cc(CC)c1C1=C(O)[C@H]2CC3(C[C@H]2C1=O)OCCCCO3 (relative stereo)
*A* 40

*Q* Look at this molecule and give its reported Summer wheat observed (%). CCc1cc(C)cc(CC)c1C1=C(O)[C@H]2CC3(C[C@H]2C1=O)OCCCO3 (relative stereo)
*A* 30

----------
Reported herbicidal effect against ALOMY (Alopecurus myosuroides) values are given for each entry in this list.
Test system: Alopecurus myosuroides
Experiment: Herbicidal post-emergence action
Format: in vivo
Conditions: post-emergence method, 80 g/ha
Description: Seeds of monocotylidonous and dicotylidonous weed and crop plants are placed in sandy loam in wood fibre pots, covered with soil and cultivated in a greenhouse under good growth conditions. […] After the test plants have been kept in the greenhouse under optimum growth conditions for about three weeks, the effect of the preparations is assessed visually in comparison to untreated controls (herbicidal effect in percent: 100% effect=the plants have died, 0% effect=like control plants).
Just the number please, in %, no unit attached.

Before answering, review these 6 worked examples.
In [3]: df
Out[3]:
                                   compound  units  quantitative_readout
0  CCc1cc(C)cc(CC)c1C1=C([O-])C2CC3(CC2C1=O)OCC(OCc1ccccc1)CO3.[Na+] (stereo not shown)      %                   100
1  C=C1CC2C(=O)C(c3c(C)cc(C)cc3C)=C(OC(=O)OCC)C2C1 (racemic)      %                    40
2  CCc1cc(C)cc(CC)c1C1=C(O)C2CC3(CC2C1=O)OC(C)CC(C)O3 (stereo not shown) [I-a-15]      %                    90
3  CCOC(=O)OC1=C(c2c(C)cc(C)cc2CC)C(=O)C2CC3(COC(C)(C)O3)CC12 (mixture of isomers)      %                    90
4  COc1cc(C)cc(C)c1C1=C([O-])C2CC3(CC2C1=O)OCCCCO3.[Na+] (stereo not shown)      %                   100
5  C=C1CC2C(=O)C(c3c(C)cc(C)cc3CC)=C(OC(=O)OC)C2C1 (racemic)      %                     0

*Q* Look at this compound and give its reported herbicidal effect against ALOMY (Alopecurus myosuroides). CCc1cc(C)cc(C)c1C1=C(OC(=O)OC(C)C)C2CC3(CC2C1=O)OCC=CCO3 (racemic)
*A* 60

*Q* Look at this compound and give its reported herbicidal effect against ALOMY (Alopecurus myosuroides). CCc1cc(C)cc(C)c1C1=C(OC(=O)C(C)C)C2CC3(CC2C1=O)OCCO3 (stereo not shown)
*A* 90

*Q* Look at this compound and give its reported herbicidal effect against ALOMY (Alopecurus myosuroides). CCc1cc(C)cc(CC)c1C1=C(OC(=O)OC)C2CC(=O)CC2C1=O (stereo not shown)
*A* 0

*Q* Look at this compound and give its reported herbicidal effect against ALOMY (Alopecurus myosuroides). CCc1cc(C)cc(CC)c1C1=C(OC(=O)OC(C)C)C2CC3(CC2C1=O)OCCCO3 (stereo not shown)
*A* 100

*Q* Look at this compound and give its reported herbicidal effect against ALOMY (Alopecurus myosuroides). CCOC(=O)OC1=C(c2c(C)cc(C)cc2CC)C(=O)C2CC3(CC12)OCCCCO3 (racemic)
*A* 60
